# Tested on: SH-SY5Y cells (human neuroblastoma)
# protocol_notes: Antiproliferative activity, 48 h treatment, ATPlite luminescence assay, SH-SY5Y
# Type: cell-based
# measurement_context: 48 h. treatment; read-out: Antiproliferative activity (IC50 ± S.D., μM) SHSY-5Y

>  <molecule>
N.N.[Cl][Pt][Cl] [Cisplatin, reference compound]

>  <IC50, µM>
7.3

$$$$

* * *

# Tested on: HepG2 cells (human hepatic carcinoma)
# protocol_notes: Antiproliferative activity, 48 h treatment, ATPlite luminescence assay, HepG2
# Format: cell-based
# measurement_context: Homo sapiens, HepG2, read-out: Antiproliferative activity (IC50 ± S.D., μM) HepG2
Reported IC50 values are given for each entry in this list.
reported_property: IC50 (µM)

>  <smiles_data>
COc1cc(C(=O)N(C)C2CC(C)(C)NC(C)(C)C2)ccc1-c1cc2cc(Cl)c(Cl)cc2[nH]1

>  <reported>
0.92

$$$$
>  <smiles_data>
CO/C(=C\C=C\c1cc2cc(Cl)c(Cl)cc2[nH]1)C(=O)NC1CC(C)(C)N(C)C(C)(C)C1

>  <reported>
1.1

$$$$
>  <smiles_data>
CCOc1cc(C(=O)NC2CC(C)(C)NC(C)(C)C2)ccc1-c1nc2cc(Cl)c(Cl)cc2[nH]1

>  <reported>
0.71

$$$$
>  <smiles_data>
CCOc1cc(C(=O)NC2CC(C)(C)NC(C)(C)C2)ccc1-c1cc2cc(Cl)c(Cl)cc2[nH]1

>  <reported>
2

$$$$

Values compiled from patent US20070299084A1.
